# test.target: JAK2 (Homo sapiens (Human), UniProt O60674)
# Sequence (O60674 849-1124): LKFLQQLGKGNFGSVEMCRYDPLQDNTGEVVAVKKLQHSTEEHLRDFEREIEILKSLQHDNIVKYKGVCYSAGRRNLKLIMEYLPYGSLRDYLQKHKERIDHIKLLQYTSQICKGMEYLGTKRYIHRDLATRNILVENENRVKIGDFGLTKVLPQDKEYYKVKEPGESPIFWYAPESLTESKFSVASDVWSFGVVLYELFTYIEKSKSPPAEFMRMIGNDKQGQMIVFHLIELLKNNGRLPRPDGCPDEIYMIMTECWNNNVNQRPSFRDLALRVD
# test.details: JAK Caliper Enzyme Assay at 1 mM ATP, JAK2
# Type: biochemical
pIC50: −log10 of the molar value.
result.type: pIC50

Here's what some known entries look like.
> print(dat)
                                   compound  result.type  measured.number
1  Cn1nc(CO)cc1-c1cc2ncccc2c(-c2ccn([C@]3(CC#N)C[C@H](C#N)C3)n2)n1 [Example 61]        pIC50             6.91
2  CO[C@H]1C[C@@](CC#N)(n2ccc(-c3nc(-c4ccn[nH]4)cc4ncccc34)n2)C1 [Example 31]        pIC50             6.02
3  N#CC[C@]1(n2ncc(-c3cc(-c4ccc(F)cn4)cc4ncccc34)n2)C[C@@H](C#N)C1 [Example 347]        pIC50             6.94
4  N#CCC1(n2ncc(-c3cc(-c4ccc(C(N)=O)cn4)cc4ncccc34)n2)CC(C#N)C1 (stereo not drawn) [Example 351]        pIC50             6.16
5  N#CCC1(n2ccc(-c3nc(-c4cc[nH]n4)cc4ncccc34)n2)CN(CC(F)(F)F)C1 [Example 16]        pIC50             6.37

A = Cc1nc(-c2cc(-c3cnn([C@]4(CC#N)C[C@@H](C#N)C4)n3)c3cccnc3c2)c[nH]1 [Example 337]
B = N#CC[C@]1(n2ncc(-c3cc(-c4cn[nH]c4N)cc4ncccc34)n2)C[C@H](C#N)C1 [Example 319]
C = Cc1cc(-c2cc3ncccc3c(-c3ccn([C@]4(CC#N)C[C@@](C)(C#N)C4)n3)n2)n[nH]1 [Example 46]
D = Cn1ncc(-c2cc(-c3cnn([C@]4(CC#N)C[C@@H](C#N)C4)n3)c3cccnc3c2)c1N [Example 330]
Input: Hey, quick one: sort these by pIC50, low to high? Returns: the labels listed in the requested order.
Output: C, D, B, A

A = CS(=O)(=O)N1CC(CC#N)(n2cc(-c3cc(-c4ccc(=O)[nH]c4)cc4ncccc34)nn2)C1 [Example 295]
B = Cc1cc(-c2cc3ncccc3c(-c3ccn(C4(CC#N)CN(S(C)(=O)=O)C4)n3)n2)ccn1 [Example 174]
C = Cc1cc(-c2cc(-c3cnn(C4(CC#N)CN(S(C)(=O)=O)C4)n3)c3cccnc3c2)ccn1 [Example 356]
Input: Please put the entries in order of rising pIC50. Please list each label once, in the requested order.
Output: A, C, B

a = Cc1cn([C@]2(CC#N)C[C@@H](C#N)C2)nc1-c1nc(-c2cc(N)n(C)n2)cc2ncccc12 [Example 278]
b = Cc1n[nH]cc1-c1cc2ncccc2c(-c2ccn([C@]3(CC#N)C[C@@H](C#N)C3)n2)n1 [Example 89]
c = Cn1nccc1-c1cc2ncccc2c(-c2ccn(C3(CC#N)CN(CC(F)(F)F)C3)n2)n1 [Example 54]
Input: Order the records, beginning with the lowest pIC50 and ending with the highest. Answer by listing the labels in the order asked for.
Output: a, c, b
(a: 5.01, c: 5.68, b: 6.11)
